Tested on: A549
procedure-details: Cytostatic activity against human A549 cells after 5 days by SRB assay
Assay type: functional
assay-setup: A549, 120 h
readout-name: GI50 (nM)

Any idea what its GI50 is? The molecule is OC[C@H]1O[C@@H](n2ccc3c(-c4cccs4)ncnc32)[C@H](O)[C@@H]1O
45

[A] OC[C@H]1O[C@@H](n2ccc3c(-c4ccn[nH]4)ncnc32)[C@H](O)[C@@H]1O
[B] OC[C@H]1O[C@@H](n2ccc3c(-c4cc[nH]c4)ncnc32)[C@H](O)[C@@H]1O
Smaller GI50 value, A vs B ? Answer format: the label of the selected item.
B
(B: 360 nM, A: 3300 nM)

[1] CCc1ncnc2c1ccn2[C@@H]1O[C@H](CO)[C@@H](O)[C@H]1O
[2] OC[C@H]1O[C@@H](n2cc(Cl)c3c(-c4ccsc4)ncnc32)[C@H](O)[C@@H]1O
Higher GI50: 1 or 2 ? Indicate your choice by writing its label.
1

====

System: CCRF-CEM
procedure-details: Antimitotic activity in human CCRF-CEM cells assessed as decrease in mitotic histone H3 at 5 x GIC50
Assay type: functional
Parameters: scale not given: the % may be the effect or the level left
// values below are reported Activity
Could you give me the number in %? Just the number is fine.

Given the compound OC[C@H]1O[C@@H](n2cc(F)c3c(-c4cccs4)ncnc32)[C@H](O)[C@@H]1O , what is its reported Activity?
0.47

Item OC[C@H]1O[C@@H](n2ccc3c(-c4cccs4)ncnc32)[C@H](O)[C@@H]1O has what recorded Activity?
0.44

Item under review: OC[C@H]1O[C@@H](n2ccc3c(-c4ccco4)ncnc32)[C@H](O)[C@@H]1O . Reported Activity?
0.48

Query: Activity; subject: Nc1nc(Cl)nc2c1ncn2[C@H]1C[C@H](O)[C@@H](CO)O1
0.44

Could you tell me which Activity is on file for OC[C@H]1O[C@@H](n2ccc3c(-c4ccoc4)ncnc32)[C@H](O)[C@@H]1O ?
0.39

Reported Activity, compound Nc1ccn([C@@H]2O[C@H](CO)[C@@H](O)C2(F)F)c(=O)n1 : ____
0.53

====

System: CCRF-CEM
procedure-details: Cytotoxicity against human CCRF-CEM cells after 3 days by XTT assay
Format: functional, cell-based
assay-setup: 72 h
Catalogue of IC50 values
Only the number, expressed in µM, is required.

Completed entries (count: 2):
Requested field: IC50. Item: OC[C@H]1O[C@@H](n2cc(F)c3c(-c4nccs4)ncnc32)[C@H](O)[C@@H]1O
0.55

Name the recorded IC50 for OC[C@H]1O[C@@H](n2cc(F)c3c(-c4ccoc4)ncnc32)[C@H](O)[C@@H]1O .
1

New cases:
Please give the measured IC50 for this compound: OC[C@H]1O[C@@H](n2ccc3c(Cc4ccccc4)ncnc32)[C@H](O)[C@@H]1O
3.8

I am curious: what IC50 value has been reported for OC[C@H]1O[C@@H](n2cc(F)c3c(-c4cc[nH]c4)ncnc32)[C@H](O)[C@@H]1O ?
0.93

====

System: CCRF-CEM
procedure-details: Cytotoxicity against human CCRF-CEM cells after 3 days by XTT assay
Format: functional, cell-based
assay-setup: 72 h
readout-name: IC50 (nM)
// units = nM; emit number, no label

Record excerpt, results attached:
Please tell me: IC50 of OC[C@H]1O[C@@H](n2ccc3c(-c4ccc[nH]4)ncnc32)[C@H](O)[C@@H]1O , system CCRF-CEM?
10000

Write down the reported IC50 of OC[C@H]1O[C@@H](n2cc(Cl)c3c(-c4ccoc4)ncnc32)[C@H](O)[C@@H]1O , test system: CCRF-CEM.
1100

Look up IC50 with CCRF-CEM for this compound: OC[C@H]1O[C@@H](n2ccc3c(-c4cc[nH]c4)ncnc32)[C@H](O)[C@@H]1O
280

More entries:
I'm curious: which IC50 was measured for OC[C@H]1O[C@@H](n2cc(F)c3c(-c4ccco4)ncnc32)[C@H](O)[C@@H]1O tested on CCRF-CEM?
1400

Quick check: IC50 on CCRF-CEM, item OC[C@H]1O[C@@H](n2cc(F)c3c(-c4ccc[nH]4)ncnc32)[C@H](O)[C@@H]1O ?
410

Lab note: need IC50 for OC[C@H]1O[C@@H](n2cc(F)c3c(-c4c[nH]cn4)ncnc32)[C@H](O)[C@@H]1O on CCRF-CEM, anyone have it?
1800

====

System: CCRF-CEM
procedure-details: Antimitotic activity in human CCRF-CEM cells assessed as decrease in mitotic histone H3 at 1 x GIC50
Format: functional
Design: scale not given: the % may be the effect or the level left
readout-name: Activity (%)
Give the number; % is assumed, so skip it.

Tell me the measured Activity of OC[C@H]1O[C@@H](n2ccc3c(-c4ccco4)ncnc32)[C@H](O)[C@@H]1O , please.
1.21

Look up Activity for this compound: OC[C@H]1O[C@@H](n2ccc3c(-c4ccoc4)ncnc32)[C@H](O)[C@@H]1O
0.84

Tell me the measured Activity of OC[C@H]1O[C@@H](n2ccc3c(-c4cccs4)ncnc32)[C@H](O)[C@@H]1O , please.
0.87

Using the record for Nc1nc(Cl)nc2c1ncn2[C@H]1C[C@H](O)[C@@H](CO)O1 [CLADRIBINE] , report its Activity.
0.85

Value lookup for Activity; key = Nc1ccn([C@@H]2O[C@H](CO)[C@@H](O)C2(F)F)c(=O)n1 [GEMCITABINE]
0.78

Now consider the entry below.
For the compound OC[C@H]1O[C@@H](n2cc(F)c3c(-c4cccs4)ncnc32)[C@H](O)[C@@H]1O , what Activity is on record?
0.85

====

Test system: A549
procedure-details: Cytostatic activity against human A549 cells after 5 days by SRB assay
Type: functional
assay-setup: A549, 120 h
readout-name: GI50 (nM)

I have this compound here, OC[C@H]1O[C@@H](n2ccc3c(-c4cn[nH]c4)ncnc32)[C@H](O)[C@@H]1O , and I need its recorded GI50.
6200

I am curious: what GI50 value has been reported for OC[C@H]1O[C@@H](n2cc(F)c3c(-c4ccc[nH]4)ncnc32)[C@H](O)[C@@H]1O ?
190

[A] OC[C@H]1O[C@@H](n2cc(F)c3c(-c4cc[nH]c4)ncnc32)[C@H](O)[C@@H]1O
[B] OC[C@H]1O[C@@H](n2cc(Cl)c3c(-c4ccccc4)ncnc32)[C@H](O)[C@@H]1O
Input pair: A , B . Output: entry with lower GI50. Identify your pick by its label.
A

====

System: A549
procedure-details: Cytostatic activity against human A549 cells after 5 days by SRB assay
Format: functional
assay-setup: A549, 120 h
readout-name: GI50 (nM)

Param item = OC[C@H]1O[C@@H](n2ccc3c(-c4nccs4)ncnc32)[C@H](O)[C@@H]1O ; retrieve measured GI50.
410

[1] OC[C@H]1O[C@@H](n2ccc3c(-c4ccco4)ncnc32)[C@H](O)[C@@H]1O
[2] OC[C@H]1O[C@@H](n2cc(F)c3c(-c4ccsc4)ncnc32)[C@H](O)[C@@H]1O
[3] OC[C@H]1O[C@@H](n2ccc3c(-c4ccccn4)ncnc32)[C@H](O)[C@@H]1O
[4] OC[C@H]1O[C@@H](n2cc(F)c3c(-c4ccoc4)ncnc32)[C@H](O)[C@@H]1O
Ascending by GI50, please. The reply should contain the labels ordered as requested.
4, 1, 2, 3
(4: 60 nM, 1: 88 nM, 2: 380 nM, 3: 4900 nM)

====

procedure-details: Cytostatic activity against human Hs578 cells after 5 days by SRB assay
Format: functional
assay-setup: Hs578, 120 h
Readings of GI50 for the listed molecules
Numeric only. Scale: nM

I have this molecule here, OC[C@H]1O[C@@H](n2cc(F)c3c(-c4ccc[nH]4)ncnc32)[C@H](O)[C@@H]1O , and I need its recorded GI50.
310

Look at this molecule and give its reported GI50. OC[C@H]1O[C@@H](n2ccc3c(-c4ccco4)ncnc32)[C@H](O)[C@@H]1O
49

Sample CCc1ncnc2c1ccn2[C@@H]1O[C@H](CO)[C@@H](O)[C@H]1O — what was its GI50?
4700

Continuing:
Given OC[C@H]1O[C@@H](n2cc(Cl)c3c(-c4ccoc4)ncnc32)[C@H](O)[C@@H]1O , state its recorded GI50.
1600

Quick one: GI50 for OC[C@H]1O[C@@H](n2cc(Cl)c3c(-c4cccs4)ncnc32)[C@H](O)[C@@H]1O ?
1600

Request the reported GI50 associated with OC[C@H]1O[C@@H](n2cc(F)c3c(-c4ccco4)ncnc32)[C@H](O)[C@@H]1O
180

====

Recorded GI50 for the following molecules
System: BT-549
procedure-details: Cytotoxicity against human BT549 cells after 5 days by SRB assay
Format: functional
assay-setup: BT-549, 120 h
Please reply with the bare figure in µM and do not write the unit itself.

A selection of reference data follows.
If you can, please state the reported GI50 value of OC[C@H]1O[C@@H](n2ccc3c(-c4ccoc4)ncnc32)[C@H](O)[C@@H]1O .
0.035

Return reported GI50; argument: OC[C@H]1O[C@@H](n2ccc3c(-c4cccs4)ncnc32)[C@H](O)[C@@H]1O
0.023

Value lookup for GI50; key = Nc1nc(Cl)nc2c1ncn2[C@@H]1O[C@H](CO)[C@@H](O)[C@@H]1F [CLOFARABINE]
0.065

// GI50 lookup, key: OC[C@H]1O[C@@H](n2cc(F)c3c(-c4cccs4)ncnc32)[C@H](O)[C@@H]1O
0.081

Consider the molecule shown here: OC[C@H]1O[C@@H](n2ccc3c(-c4ccco4)ncnc32)[C@H](O)[C@@H]1O What is its recorded GI50?
0.012

Next:
I have this molecule here, Nc1ccn([C@@H]2O[C@H](CO)[C@@H](O)C2(F)F)c(=O)n1 [GEMCITABINE] , and I need its recorded GI50.
0.004

# lookup: GI50 of OC[C@H]1O[C@@H](n2cc(F)c3c(-c4ccco4)ncnc32)[C@H](O)[C@@H]1O
0.11
